TARGET: 11β-HSD1 (Homo sapiens, UniProt P28845)
Sequence (P28845 whole entry): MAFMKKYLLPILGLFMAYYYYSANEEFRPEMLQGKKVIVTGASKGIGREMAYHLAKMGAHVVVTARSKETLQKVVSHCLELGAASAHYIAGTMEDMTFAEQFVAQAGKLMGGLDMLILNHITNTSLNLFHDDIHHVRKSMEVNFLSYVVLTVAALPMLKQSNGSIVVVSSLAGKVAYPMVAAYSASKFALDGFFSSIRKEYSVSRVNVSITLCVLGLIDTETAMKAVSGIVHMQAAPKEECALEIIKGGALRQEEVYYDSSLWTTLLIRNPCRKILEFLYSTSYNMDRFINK
TEST: Biological Test Example 4: microsomal 11β-HSD1 in the presence of 50% human plasma
pIC50: −log10 of the molar value.
REPORTED PROPERTY: pIC50

C[C@@H](c1ccc(-c2ccc(C(=O)NC3CC3)nn2)cc1)N1CC[C@](CC(C)(C)O)(c2ccccc2)OC1=O | 8.12

(I) C[C@@H](c1ccc(-c2ccc(C#N)cn2)cc1)N1CC[C@](CCCO)(c2ccc(F)cc2)OC1=O
(II) Cc1cccc(-c2ccc([C@H](C)N3CC[C@](CCCO)(c4ccccc4)OC3=O)cc2)n1
Given I and II , report the one with the higher recorded pIC50. Reply with the label of the item you choose.
I
(I: 8.12, II: 7.87)

* * *

TARGET: 11β-HSD1 (Homo sapiens)
TEST: biochemical
CONDITION DETAILS: read-out: Average % inhibition at 100 nM
REPORTED PROPERTY: inhibition at 0.1 µM (%)

C=CC[C@]1(c2ccc(F)cc2)CCN([C@@H](C)c2ccc(-n3ccc(C(F)(F)F)n3)cc2)C(=O)O1 [EXAMPLE 43] | 86.2
C[C@@H](c1ccc(-c2cncc(Cl)c2)cc1)N1CC[C@](CCCO)(c2ccc(F)cc2)OC1=O [EXAMPLE 69] | 98.3
Cc1cc(-c2ccc([C@H](C)N3CC[C@](CC(C)(C)O)(c4ccc(F)cc4)OC3=O)cc2)cc[n+]1[O-] [EXAMPLE 124] | 88.1
C[C@@H](c1ccc(-c2ccc(C(=O)NC3CC3)cn2)cc1)N1CC[C@](CC(C)(C)O)(c2ccccc2)OC1=O [EXAMPLE 161] | 95.1
C[C@@H](c1ccc(-c2ccccn2)cc1)N1CC[C@](CCO)(c2ccc(F)cc2)OC1=O [EXAMPLE 57] | 99.4
COc1cncc(-c2ccc([C@H](C)N3CC[C@](CCCO)(c4ccc(F)cc4)OC3=O)cc2)c1 [EXAMPLE 53] | 98.7
Cc1nnc(CC[C@]2(c3ccccc3)CCN([C@@H](C)c3ccc(-c4ccc(C#N)cn4)cc3)C(=O)O2)s1 [EXAMPLE 146] | 78.9
C[C@@H](c1ccc(-c2ccc(C(F)(F)F)nc2)cc1)N1CC[C@](CCCO)(c2ccc(F)cc2)OC1=O [EXAMPLE 44] | 100
Cc1cc(-c2ccc([C@H](C)N3CC[C@](CCC(N)=O)(c4ccc(F)cc4)OC3=O)cc2)ccn1 [EXAMPLE 78] | 95.8
C[C@@H](c1ccc(-c2nccs2)cc1)N1CC[C@](CCCO)(c2ccc(F)cc2)OC1=O [EXAMPLE 82] | 98.1
C[C@@H](c1ccc(-c2ccccn2)cc1)N1CC[C@](CCC(N)=O)(c2ccccc2)OC1=O [EXAMPLE 88] | 98.3
Cc1cc(-c2ccc([C@H](C)N3CC[C@](CC(C)(C)C#N)(c4ccc(F)cc4)OC3=O)cc2)ccn1 [EXAMPLE 116] | 99.6
C[C@@H](c1ccc(-c2ccccn2)cc1)N1CC[C@](CCCNS(C)(=O)=O)(c2ccccc2)OC1=O [EXAMPLE 89] | 98.9
C[C@@H](c1ccc(-c2ccc(C(=O)NC(C)(C)C)nn2)cc1)N1CC[C@](CC(C)(C)C#N)(c2ccccc2)OC1=O [EXAMPLE 9] | 92.4
Cc1cc(-c2ccc([C@H](C)N3CC[C@](CC(C)(C)O)(c4ccc(F)cc4)OC3=O)cc2)cc(C)n1 [EXAMPLE 144] | 98.6
C[C@@H](c1ccc(-c2ccc(C3CC3)nn2)cc1)N1CC[C@](CC(C)(C)O)(c2ccccc2)OC1=O [EXAMPLE 4] | 96.3
Cc1cn(-c2ncc(-c3ccc([C@H](C)N4CC[C@](CC(C)(C)O)(c5ccccc5)OC4=O)cc3)cn2)c(C)n1 [EXAMPLE 26] | 95.2
Cc1ccc(-c2ccc([C@H](C)N3CC[C@](CCCO)(c4ccc(F)cc4)OC3=O)cc2)nn1 [EXAMPLE 114] | 98.9
